protocol description: ATG_PPRE_CIS: Attagene CIS-FACTORIAL HepG2 Assay for human Peroxisome Proliferator-activated Response Element (PPRE) (AID 2282958)
recorded conditions: HepG2 PPRE cis-element reporter, Attagene transcription factor profiling; actives raise or lower the signal
Active and inactive are the calls of the source. Rule for the calls: active = hit-call score of the fitted dose curve at least 0.9, where 1 is the maximum; inactive = score below 0.9.
Log the outcome using a class from label 1 for active, label 0 for inactive

Request: Kindly provide the recorded test outcome for the following molecule: O=S1(=O)OC(c2ccc(O)cc2)(c2ccc(O)cc2)c2ccccc21
Response: label 0

Request: Next up: O=c1[nH]nc(-c2ccc([N+](=O)[O-])o2)o1
Response: label 0

Request: One more molecule: COC=O
Response: label 0

Request: Next molecule: C=C[C@](C)(O)CC[C@@H]1[C@@]2(C)CCCC(C)(C)[C@@H]2CC[C@@]1(C)O
Response: label 0

Request: Also, OC1CCCC1 please.
Response: label 0

Request: # repeat for CC=C1CC2C=CC1C2 (stereo unspecified)
Response: label 0
